- Tested on: Syrian Golden Hamster
- protocol-details: In vivo effect on plasma lipids in Syrian Golden Hamster
- recorded-conditions: 0.3 mg/kg/day oral, 14 days
Reported Triglyceride, change versus normal diet control is given for each of the following compounds.
metric-name: Triglyceride, change versus normal diet control

structure_string=CCCOc1cc2c(cc1OCCC)-c1c(CC)c3ccc(OCCC)c(OCc4ccc(C(F)(F)F)cc4)c3c[n+]1CC2 obs_value=-43.1%
structure_string=CCc1c2[n+](cc3c(OCc4c(F)c(F)c(F)c(F)c4F)c(OC)ccc13)CCc1cc(OC)c(OC)cc1-2 obs_value=-38.0%
structure_string=CCc1c2[n+](cc3c(OCc4ccc(C(C)(C)C)cc4)c(OC)ccc13)CCc1cc(OC)c(OC)cc1-2 obs_value=-14.6%
structure_string=CCc1c2[n+](cc3c(OCc4ccc(C(F)(F)F)cc4)c(OC)ccc13)CCc1cc(OC)c(OC)cc1-2 obs_value=-43.6%
